# Tested on: HL-60
# METHOD: NCI tumour cell line growth inhibition, 48 h
Active and inactive are the calls of the source. Cut-off read from the data, not from the text of the source: active = GI50 up to about 1.1 µM and inactive = higher.
Outcomes: 1.0 = active, 0.0 = inactive

>>> class("O=C(NCc1cccnc1)NCc1cccnc1")
0.0
>>> class("O=C(c1cccs1)N1CCN(C(=O)c2cccs2)C1=S")
0.0
>>> class("CN(C)c1ccc(C(C#N)NNC(=O)Cc2ccccc2)cc1 (configuration not stated)")
0.0
>>> class("CCC(=O)NCCc1c2c3c(ccnc3c3ncsc13)-c1ccccc1N2")
1.0
>>> class("CCOC(=O)c1ccc(/N=N\\c2ccc(N(CCC#N)CCC#N)cc2C)cc1")
0.0
>>> class("CCN(C(=O)/C=C/c1ccco1)c1ccccc1")
0.0
>>> class("O=S1(=O)C(c2ccccc2)=C(O)c2ccccc21")
0.0
